B1: SMARCE1 (parent)
chain: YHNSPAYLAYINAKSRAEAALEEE

Variants of: B1
Measurement Protocol: protein stability index of a GFP-peptide fusion (GPS, HEK-293T) (PSI 1-6); higher = more stable;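 note: lentivirally expressed fusions sorted by FACS into six bins by GFP to DsRed ratio, PSI derived from sequencing read proportions per bin multiplied by bin number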
Condition Description: c terminus: a fixed tail appended
Cut-off 2 on protein stability index, inclusive. At or above means T; below means F.

- Input Sequence: "YHNSPAYLAYINAKSREEAALEEE"
  Qualitative Label: "F"
- Input Sequence: "YDNSPAYLAYINAKSRAEAALEEE"
  Qualitative Label: "T"
- Input Sequence: "YHNSPAYYAYINAKSRAEAALEEE"
  Qualitative Label: "T"
- Input Sequence: "YHNSPAYLAMINAKSRAEAALEEE"
  Qualitative Label: "T"
- Input Sequence: "YHNSPANLAYINAKSRAEAALEEE"
  Qualitative Label: "T"
- Input Sequence: "YHNSPAYLAYINAKSRAEPALEEE"
  Qualitative Label: "F"
- Input Sequence: "YHNSPAYLAYINAKSRAEADLEEE"
  Qualitative Label: "T"
- Input Sequence: "YHNSPAYLAYMNAKSRAEAALEEE"
  Qualitative Label: "T"
- Input Sequence: "YHNSPAYLAYINAKSHAEAALEEE"
  Qualitative Label: "T"
- Input Sequence: "YHNSPACLAYINAKSRAEAALEEE"
  Qualitative Label: "T"
- Input Sequence: "YHNSPAYLAYINAHSRAEAALEEE"
  Qualitative Label: "T"
